Ref: patent US20220089599A1

# Test system: KCL22-IR
# Type: cell-based
# measurement_context: cell activities of other nicotinamide compounds, KCL22-IR; read-out: IC50 KCL22-IR
What pIC50 was measured for each of the following?
Numbers only, as −log10 of the molar value.

Sample records with pIC50:
                                   molecule  target_or_test_system  experimental_result
0  Cc1ncc(C(=O)Nc2ccc(CN3CCN(C)CC3)c(C(F)(F)F)c2)cc1C#Cc1cnc2cccnn12               KCL22-IR                 9.34
1  CN1CCN(Cc2ccc(NC(=O)c3cncc(C#Cc4cnc5ccccn45)c3)cc2C(F)(F)F)CC1               KCL22-IR                 8.37
2  CN1CCN(Cc2ccc(NC(=O)c3cncc(C#Cc4cncc5nccn45)c3)cc2C(F)(F)F)CC1               KCL22-IR                 7.30
3  CN1CCN(Cc2ccc(C(=O)Nc3cncc(C#Cc4cnc5cccnn45)c3)cc2C(F)(F)F)CC1               KCL22-IR                 8.38

Next compound, please.
-- ask Would you kindly share the measured pIC50 for `CN1CCN(Cc2ccc(NC(=O)c3cncc(C#Cc4cnc5cnccn45)c3)cc2C(F)(F)F)CC1` ?
-- reply 7.76
